These data points were gathered from the METLIN SMRT retention time set (Domingo-Almenara et al. 2019).

assay_comment: gradient 5% acetonitrile 3 min, to 50% in 2 min, to 85% in 15 min, held 3 min, 100 µL/min
condition_description: column: Zorbax Extend-C18 2.1 x 50 mm; eluents: water / acetonitrile, 0.1% formic acid
Assign yes to entries whose RP-LC retention time meets or exceeds 800 s; assign no to the rest.

[
  {
    "molecule": "CCN1C(=O)COc2ccc(-c3noc(-c4ccccc4Br)n3)cc21",
    "assigned_label": "yes"
  },
  {
    "molecule": "CCCCCNC(=O)c1sccc1S(=O)(=O)N(C)c1ccc(OCC)cc1",
    "assigned_label": "yes"
  },
  {
    "molecule": "CC(=O)c1cccc(NC(=O)Cn2cccc2-c2nc(-c3ccc4c(c3)OCO4)no2)c1",
    "assigned_label": "yes"
  },
  {
    "molecule": "CCCN1C(=O)COc2ccc(-c3noc(C(C)Oc4ccccc4)n3)cc21 (centres undefined)",
    "assigned_label": "yes"
  },
  {
    "molecule": "CCCN1CCN(C(=O)C2CCN(c3nc4cccnc4s3)CC2)CC1",
    "assigned_label": "no"
  },
  {
    "molecule": "Cc1ccn2cc(-c3ccc(NC(=O)c4cccc(Cl)c4)cc3)nc2n1",
    "assigned_label": "no"
  },
  {
    "molecule": "Cc1sc(-c2noc(C3CCC3)n2)cc1S(=O)(=O)N1CCC(C(=O)N2CCCCC2)CC1",
    "assigned_label": "yes"
  },
  {
    "molecule": "Cc1cccc(-c2ncccc2CNC(=O)c2ccco2)c1",
    "assigned_label": "no"
  }
]
